METHOD: Half life of free unbound fraction in Pseudomonas aeruginosa PAO1 infected C57BL/6J mouse at 10 mg/kg, ip administered every 6 hrs
Assay type: ADME, organism-based
Design: dose 10 mg/kg, route intraperitoneal
CONDITION LABEL: in vivo, read-out: t1/2 unbound fraction (converted)
READOUT LABEL: half-life (min)
Return type: number; implicit unit min.

Record request: half-life value, item NC[C@H]1O[C@H](O[C@H]2[C@H](O)[C@@H](O[C@H]3O[C@H](CO)[C@@H](O)[C@H](N)[C@H]3O)[C@H](N)C[C@@H]2N)[C@H](N)C[C@@H]1O 33

###

METHOD: Half life of free unbound fraction in Pseudomonas aeruginosa PAO1 infected C57BL/6J mouse at 70 mg/kg, ip administered every 3 hrs
Type: ADME, organism-based
Set-up: dose 70 mg/kg, route intraperitoneal
CONDITION LABEL: in vivo, read-out: t1/2 unbound fraction (converted)
READOUT LABEL: half-life (min)
Please state the figure in min; there is no need to write the unit.

Value lookup for half-life; key = CC(C)(O/N=C(\C(=O)N[C@@H]1C(=O)N2C(C(=O)[O-])=C(C[n+]3ccccc3)CS[C@H]12)c1csc(N)n1)C(=O)O [CEFTAZIDIME] 24

###

System: Pseudomonas aeruginosa
METHOD: Antibacterial activity against Pseudomonas aeruginosa PAOdeltamutS by Etest
Format: functional
READOUT LABEL: log10(MIC) (log10 of the value in µg/mL)
Log10 applied to MIC; unit prior to transform: µg/mL.

Some solved entries appear below for comparison.
CO/N=C(\C(=O)N[C@@H]1C(=O)N2C(C(=O)[O-])=C(C[N+]3(C)CCCC3)CS[C@H]12)c1csc(N)n1 :: 0.00
CC(C)(O/N=C(\C(=O)N[C@@H]1C(=O)N2C(C(=O)[O-])=C(C[n+]3ccccc3)CS[C@H]12)c1csc(N)n1)C(=O)O :: 0.00
CN(C)[C@@H]1C(O)=C(C(N)=O)C(=O)[C@@]2(O)C(O)=C3C(=O)c4c(O)cccc4[C@@](C)(O)[C@H]3C[C@@H]12 :: 1.38
C[C@@H](O)[C@H]1C(=O)N2C(C(=O)O)=C(SCCNC=N)C[C@H]12 [IMIPENEM ANHYDROUS] :: 0.18
O=C(O)c1cn(C2CC2)c2cc(N3CCNCC3)c(F)cc2c1=O :: -0.92
NC[C@H]1O[C@H](O[C@H]2[C@H](O)[C@@H](O[C@H]3O[C@H](CO)[C@@H](O)[C@H](N)[C@H]3O)[C@H](N)C[C@@H]2N)[C@H](N)C[C@@H]1O :: 0.00
C[C@H]1[C@H](NC(=O)/C(=N\OC(C)(C)C(=O)O)c2csc(N)n2)C(=O)N1S(=O)(=O)O :: 0.18
C[C@@H](O)[C@H]1C(=O)N2C(C(=O)O)=C(S[C@@H]3CN[C@H](C(=O)N(C)C)C3)[C@H](C)[C@H]12 :: -0.12

So what does the record say about log10(MIC) for O=C(N[C@H](CO)[C@H](O)c1ccc([N+](=O)[O-])cc1)C(Cl)Cl ? 1.51

###

Test system: Pseudomonas aeruginosa
METHOD: Antibacterial activity against Pseudomonas aeruginosa PAO1 by Etest
Type: functional
READOUT LABEL: MIC (µg/mL)
Report only the number, with the unit µg/mL understood.

Suppose we examine the compound CC(C)(O/N=C(\C(=O)N[C@@H]1C(=O)N2C(C(=O)[O-])=C(C[n+]3ccccc3)CS[C@H]12)c1csc(N)n1)C(=O)O ; what MIC value has been reported? 1

Now the compound C[C@@H](O)[C@H]1C(=O)N2C(C(=O)O)=C(S[C@@H]3CN[C@H](C(=O)N(C)C)C3)[C@H](C)[C@H]12 0.5

Another: NC[C@H]1O[C@H](O[C@H]2[C@H](O)[C@@H](O[C@H]3O[C@H](CO)[C@@H](O)[C@H](N)[C@H]3O)[C@H](N)C[C@@H]2N)[C@H](N)C[C@@H]1O 1

Now consider C[C@@H](O)[C@H]1C(=O)N2C(C(=O)O)=C(SCCNC=N)C[C@H]12 [IMIPENEM ANHYDROUS] . 1.5

One more compound: CO/N=C(\C(=O)N[C@@H]1C(=O)N2C(C(=O)[O-])=C(C[N+]3(C)CCCC3)CS[C@H]12)c1csc(N)n1 1

Would you mind doing C[C@H]1[C@H](NC(=O)/C(=N\OC(C)(C)C(=O)O)c2csc(N)n2)C(=O)N1S(=O)(=O)O as well? 1.5

What do we get for O=C(N[C@H](CO)[C@H](O)c1ccc([N+](=O)[O-])cc1)C(Cl)Cl ? 32

Proceed to CN(C)[C@@H]1C(O)=C(C(N)=O)C(=O)[C@@]2(O)C(O)=C3C(=O)c4c(O)cccc4[C@@](C)(O)[C@H]3C[C@@H]12 24
